- Test system: TGW (Neuroblastoma);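 note: after 72 h of two-drug dosing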
- Test summary: Bliss excess, mean over the matrix (fraction); higher = more synergy
Readings of Bliss excess for the listed compounds
The answer should be written as a number, with no unit following it.

Compound: NC1(C(=O)N[C@@H](CCO)c2ccc(Cl)cc2)CCN(c2ncnc3[nH]ccc23)CC1 [Capivasertib] + Cn1cnc2c(F)c(Nc3ccc(Br)cc3Cl)c(C(=O)NOCCO)cc21 [Selumetinib] (first compound max 10 µM, 7x7, partner max 10 µM)
System tested: TGW (Neuroblastoma);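 note: after 72 h of two-drug dosing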
Bliss excess: -0.104
//
Compound: CC1(C)CCC(CN2CCN(c3ccc(C(=O)NS(=O)(=O)c4ccc(NCC5CCOCC5)c([N+](=O)[O-])c4)c(Oc4cnc5[nH]ccc5c4)c3)CC2)=C(c2ccc(Cl)cc2)C1 [Venetoclax] + Cn1cnc2c(F)c(Nc3ccc(Br)cc3Cl)c(C(=O)NOCCO)cc21 [Selumetinib] (first compound max 1 µM, 7x7, partner max 3 µM)
System tested: TGW (Neuroblastoma);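 note: after 72 h of two-drug dosing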
Bliss excess: 0.0099
//
Compound: N#Cc1cnc(Nc2cc(NC[C@H]3CNCCO3)c(C(F)(F)F)cn2)cn1 [SRA737] + Nc1ccn([C@@H]2O[C@H](CO)[C@@H](O)C2(F)F)c(=O)n1 [Gemcitabine] (first compound max 10 µM, 7x7, partner max 0.3 µM)
System tested: TGW (Neuroblastoma);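 note: after 72 h of two-drug dosing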
Bliss excess: -0.0301

Q: Any idea what its Bliss excess is? The compound is COc1nnc2ccc(N3CCC(c4ccc(OCCN5CCN(C)C(=O)[C@H]5C)cc4)CC3)nn12 [AZD5153] + C=CCn1c(=O)c2cnc(Nc3ccc(N4CCN(C)CC4)cc3)nc2n1-c1cccc(C(C)(C)O)n1 [AZD1775] (first compound max 1 µM, partner max 1 µM)
Result: -0.0689
